Reported OD 405 nm values are given for each entry in this list.
target: peroxidase-anti-peroxidase (PAP) immune complex (preformed immune complex of peroxidase and anti-peroxidase IgG); assay: reverse ELISA, competition: pre-incubated with rabbit PAP, then histone-coated plate (competitor: histone); lower = more inhibition
Positions of bridges follow the written chain, without caps; N, C: chain ends. No end group written: not given here.
State just the number; it will be interpreted in OD.

Recorded OD 405 nm, per entry:
DCARHLGELVWCT (disulfide 2-12 (inferred)) [… peptide (SEQ ID NO:4)]	0.363
DCAWHLGELAACT (cyclized by a disulfide bond between the two cysteine residues) [… peptide (SEQ ID NO:42)]	0.729
PCARHLGELVWCT (disulfide 2-12 (inferred)) [… peptide (SEQ ID NO:41)]	0.444

Consider the record given below.
Q: Return reported OD 405 nm; argument: RCARHLGELVWCT (disulfide 2-12 (inferred)) [… peptide (SEQ ID NO:5)]
A: 0.359
